# Tested on: MOLT-4
# procedureDetails: NCI tumour cell line growth inhibition, 48 h
Active and inactive are the calls of the source. Cut-off read from the data, not from the text of the source: active = GI50 up to about 1.1 µM and inactive = higher.
# GI50 listing for each entry below

Use these answered entries as a reference point.
* Cc1c(C)n(-c2ccccc2)c2nc([S+](C)[O-])nc([S+](C)[O-])c12 (stereo unspecified) | 2.33 µM (inactive)
* CN1N=C2NCCNC3=NN(C)/C(=N/CC/N=C/1S2)S3 | > 100 µM (inactive)
* C[C@@H](C[C@@H](O)[C@H](O)C(C)(C)O)[C@H]1CC=C2[C@]3(C)[C@H](O)C[C@H]4C(C)(C)[C@H](O)CC[C@]4(C)[C@H]3CC[C@@]21C | 11.1 µM (inactive)
* CCOc1ccc2nc(NC(=O)C(=O)C(C(=O)c3ccccc3-c3ccccc3)C3OC(=O)c4ccccc43)sc2c1 (stereo unspecified) | 13.2 µM (inactive)
* Cc1cc(=O)n2c(cc3cccccc32)n1 | > 100 µM (inactive)
* CC1CCN(CC(=O)N2c3ccccc3Sc3cc4ccccc4cc32)CC1 | 36.4 µM (inactive)

Asked: Consider the compound N#C/C(=C\c1ccc(CP(=O)(O)O)cc1)C(N)=O and give its recorded GI50.
Given back: > 100 µM (inactive)

Asked: Consider the compound NC(Cc1ncccn1)C(=O)O (stereo unspecified) and give its recorded GI50.
Given back: > 100 µM (inactive)

Asked: Consider the compound Cc1cc(C)c2c(c1)C(=O)C1(C2)Cc2c(ccc(C)c2C)C1=O (stereo unspecified) and give its recorded GI50.
Given back: > 100 µM (inactive)
